Where do these numbers come from? They come from patent US9617267B2.

Known pIC50 of a selection of compounds
Target: CYP2C9 (Homo sapiens (Human), UniProt P11712)
Sequence (P11712 whole entry): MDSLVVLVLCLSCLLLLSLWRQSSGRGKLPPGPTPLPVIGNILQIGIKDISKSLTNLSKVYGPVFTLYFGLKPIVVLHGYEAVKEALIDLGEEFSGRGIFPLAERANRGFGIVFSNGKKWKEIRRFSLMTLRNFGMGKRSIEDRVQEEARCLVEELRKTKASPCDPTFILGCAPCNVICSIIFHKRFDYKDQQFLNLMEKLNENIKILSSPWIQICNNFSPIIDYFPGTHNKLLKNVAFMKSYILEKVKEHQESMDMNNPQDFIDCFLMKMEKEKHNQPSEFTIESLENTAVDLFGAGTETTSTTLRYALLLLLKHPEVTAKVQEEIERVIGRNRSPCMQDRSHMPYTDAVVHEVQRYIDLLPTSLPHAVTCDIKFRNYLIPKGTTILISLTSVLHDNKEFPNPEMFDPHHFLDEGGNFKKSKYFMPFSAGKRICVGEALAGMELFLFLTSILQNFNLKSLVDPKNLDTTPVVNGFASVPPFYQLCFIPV
Experiment: CYP enzyme inhibition, fluorescent substrate (MFC)
pIC50: −log10 of the molar value.

Some compounds with known pIC50 results, for comparison:
INSERT INTO measurements (cpd_smiles, target_or_system, measurement_label, measured_value) VALUES
  ('CCCS(=O)(=O)Nc1ccc(F)c(C(=O)c2c[nH]c3ncc(Cl)c(C)c23)c1F', 'CYP2C9 (Homo sapiens (Human), UniProt P11712)', 'pIC50', '5.00 to 5.30'),
  ('COc1ncnc2[nH]cc(C(=O)c3c(F)ccc(NS(=O)(=O)c4ccc(C(C)C)cc4)c3F)c12', 'CYP2C9 (Homo sapiens (Human), UniProt P11712)', 'pIC50', '5.00 to 5.30');

Here's the next entry for you.
Fill in the blank: the reported pIC50 of "CCCc1ccc(S(=O)(=O)Nc2ccc(F)c(C(=O)c3c[nH]c4ncnc(NC(C)C)c34)c2F)cc1" is ____.
5.00 to 5.30

###

Known Biochemical activity ratio V600E/C of a selection of compounds
Molecular target: B-Raf V600E (Homo sapiens (Human), UniProt P15056, V600E)
Sequence (P15056 whole entry V600E): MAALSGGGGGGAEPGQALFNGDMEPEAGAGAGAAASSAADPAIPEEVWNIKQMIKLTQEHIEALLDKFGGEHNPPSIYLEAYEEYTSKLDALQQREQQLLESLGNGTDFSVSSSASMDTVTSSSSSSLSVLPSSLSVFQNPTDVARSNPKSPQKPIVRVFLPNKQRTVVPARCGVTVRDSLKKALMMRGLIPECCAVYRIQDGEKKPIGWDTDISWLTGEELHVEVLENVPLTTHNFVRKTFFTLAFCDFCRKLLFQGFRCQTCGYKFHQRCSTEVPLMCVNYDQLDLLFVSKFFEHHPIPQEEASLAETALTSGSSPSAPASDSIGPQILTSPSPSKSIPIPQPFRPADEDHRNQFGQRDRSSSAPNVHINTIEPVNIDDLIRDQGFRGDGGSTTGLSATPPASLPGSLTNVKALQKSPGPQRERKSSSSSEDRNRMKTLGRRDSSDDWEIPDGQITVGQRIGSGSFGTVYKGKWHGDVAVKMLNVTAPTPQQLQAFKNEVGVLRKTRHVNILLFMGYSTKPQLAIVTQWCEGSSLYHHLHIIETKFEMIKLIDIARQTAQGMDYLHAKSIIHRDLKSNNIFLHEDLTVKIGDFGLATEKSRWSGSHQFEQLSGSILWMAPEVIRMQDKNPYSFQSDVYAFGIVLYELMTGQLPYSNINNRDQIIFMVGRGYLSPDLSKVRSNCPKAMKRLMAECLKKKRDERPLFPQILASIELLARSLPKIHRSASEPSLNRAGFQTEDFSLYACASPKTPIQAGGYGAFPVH
Experiment: B-Raf V600E kinase activity biochemical assay (AlphaScreen, biotin-MEK1 phosphorylation)
Settings: ratio of IC50 B-Raf V600E / c-Raf-1
Method: Compounds to be tested are diluted in dimethyl sulfoxide to a concentration of 0.1 mM. These are serially diluted 15 μL into 30 μL of dimethyl sulfoxide seven times in 96 well plates for a total of 8 dilution points, and for each dilution point 1 μL is added to a well of an assay plate. […] The reaction is started with addition of 10 μL of 200 μM ATP (i.e. final 100 μM ATP). […] The plates are incubated for 3 hours at room temperature and read on Envision reader (Perkin Elmer). […]

Some compounds with known Biochemical activity ratio V600E/C results, for comparison:
INSERT INTO assay_data (cpd_smiles, measured_value) VALUES
  ('Cc1cc(C)cc(S(=O)(=O)Nc2ccc(F)c(C(=O)c3c[nH]c4ncnc(NC(C)C)c34)c2F)c1', '0.1-10'),
  ('O=C(c1c(F)ccc(NS(=O)(=O)c2ccc(C(F)(F)F)cc2)c1F)c1c[nH]c2ncnc(NC3COC3)c12', '>10'),
  ('COc1ncnc2[nH]cc(C(=O)c3c(F)ccc(NS(=O)(=O)CC(C)C)c3F)c12', '0.1-10'),
  ('N#Cc1c(F)cnc2[nH]cc(C(=O)c3c(F)ccc(NS(=O)(=O)c4ccc(C(F)(F)F)cc4)c3F)c12', '>10'),
  ('O=C(c1c(F)ccc(NS(=O)(=O)c2ccc(C(F)(F)F)cc2)c1F)c1c[nH]c2ncnc(NCCO)c12', '>10');

Please state recorded Biochemical activity ratio V600E/C (tested on B-Raf V600E (Homo sapiens (Human), UniProt P15056, V600E)) of "CCCc1ccc(S(=O)(=O)Nc2ccc(F)c(C(=O)c3c[nH]c4ncnc(NC5COC5)c34)c2F)cc1"
>10

Please state recorded Biochemical activity ratio V600E/C (tested on B-Raf V600E (Homo sapiens (Human), UniProt P15056, V600E)) of "CCCS(=O)(=O)Nc1ccc(F)c(C(=O)c2c[nH]c3ncnc(O)c23)c1F"
0.1-10

Please state recorded Biochemical activity ratio V600E/C (tested on B-Raf V600E (Homo sapiens (Human), UniProt P15056, V600E)) of "CCCS(=O)(=O)Nc1ccc(F)c(C(=O)c2c[nH]c3ncnc(NC4COC4)c23)c1F"
0.1-10

###

Target: B-Raf V600E (Homo sapiens (Human), UniProt P15056, V600E)
Assay: B-Raf V600E kinase activity biochemical assay (AlphaScreen, biotin-MEK1 phosphorylation)
Conditions: ratio of IC50 B-Raf V600E / c-Raf-1
measurement label: Biochemical activity ratio V600E/C

Some molecules with known Biochemical activity ratio V600E/C results, for comparison:
INSERT INTO results (cpd_smiles, measurement_label, measured_value) VALUES
  ('CCCc1ccc(S(=O)(=O)Nc2ccc(F)c(C(=O)c3c[nH]c4ncnc(NC5CC5)c34)c2F)cc1', 'Biochemical activity ratio V600E/C', '>10'),
  ('CCCS(=O)(=O)Nc1ccc(F)c(C(=O)c2c[nH]c3ncc(Cl)c(C#N)c23)c1F', 'Biochemical activity ratio V600E/C', '0.1-10');

Fill in the blank: the reported Biochemical activity ratio V600E/C of "O=C(c1c(F)ccc(NS(=O)(=O)c2ccc(C(F)(F)F)cc2)c1F)c1c[nH]c2ncnc(Cl)c12" is ____.
>10

Fill in the blank: the reported Biochemical activity ratio V600E/C of "CCCc1ccc(S(=O)(=O)Nc2ccc(F)c(C(=O)c3c[nH]c4ncnc(O)c34)c2F)cc1" is ____.
>10

Fill in the blank: the reported Biochemical activity ratio V600E/C of "O=C(c1c(F)ccc(NS(=O)(=O)c2ccc(C(F)(F)F)cc2)c1F)c1c[nH]c2ncnc(N3CCOCC3)c12" is ____.
>10

Fill in the blank: the reported Biochemical activity ratio V600E/C of "Nc1ncnc2[nH]cc(C(=O)c3c(F)ccc(NS(=O)(=O)c4ccc(C(F)(F)F)cc4)c3F)c12" is ____.
>10

Fill in the blank: the reported Biochemical activity ratio V600E/C of "O=C(c1c(F)ccc(NS(=O)(=O)c2ccc(C(F)(F)F)cc2)c1F)c1c[nH]c2nccc(NC3CCOCC3)c12" is ____.
>10

Fill in the blank: the reported Biochemical activity ratio V600E/C of "Cc1ncnc2[nH]cc(C(=O)c3c(F)ccc(NS(=O)(=O)c4ccc(C(F)(F)F)cc4)c3F)c12" is ____.
>10

Fill in the blank: the reported Biochemical activity ratio V600E/C of "CC(C)Nc1ncnc2[nH]cc(C(=O)c3c(F)ccc(NS(=O)(=O)c4ccc(C(C)C)cc4)c3F)c12" is ____.
>10

###

Molecular target: CYP2D6 (Homo sapiens (Human), UniProt P10635)
Sequence (P10635 whole entry): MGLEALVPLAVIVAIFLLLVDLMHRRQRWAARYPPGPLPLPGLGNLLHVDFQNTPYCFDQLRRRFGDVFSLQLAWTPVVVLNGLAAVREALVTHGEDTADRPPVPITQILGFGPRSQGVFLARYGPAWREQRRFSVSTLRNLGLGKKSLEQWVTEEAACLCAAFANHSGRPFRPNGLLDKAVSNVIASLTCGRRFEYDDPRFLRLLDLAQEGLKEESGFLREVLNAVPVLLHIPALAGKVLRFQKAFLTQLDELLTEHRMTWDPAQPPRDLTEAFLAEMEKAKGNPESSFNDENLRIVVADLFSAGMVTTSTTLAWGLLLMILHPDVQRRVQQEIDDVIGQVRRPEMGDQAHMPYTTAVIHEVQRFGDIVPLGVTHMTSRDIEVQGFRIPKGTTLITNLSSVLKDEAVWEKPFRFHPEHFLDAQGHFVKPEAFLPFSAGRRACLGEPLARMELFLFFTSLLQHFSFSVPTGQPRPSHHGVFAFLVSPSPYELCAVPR
Test: CYP enzyme inhibition, fluorescent substrate (AMMC)
Format: in vitro ADME
Conditions: read-out: Cyp IC50 2D6
measurement label: IC50

Some compounds with known IC50 results, for comparison:
INSERT INTO assay_data (compound, measurement_label, measured_value) VALUES
  ('CCCc1ccc(S(=O)(=O)Nc2ccc(F)c(C(=O)c3c[nH]c4ncnc(NC5COC5)c34)c2F)cc1 [P-1056]', 'IC50', '> 10 µM'),
  ('O=C(c1c(F)ccc(NS(=O)(=O)c2ccc(C(F)(F)F)cc2)c1F)c1c[nH]c2ncnc(Nc3ccccc3)c12 [P-1037]', 'IC50', '> 10 µM');

Please state recorded IC50 (tested on CYP2D6 (Homo sapiens (Human), UniProt P10635)) of CC(C)CNc1ncnc2[nH]cc(C(=O)c3c(F)ccc(NS(=O)(=O)c4ccc(C(F)(F)F)cc4)c3F)c12 [P-1020]
> 10 µM

###

Molecular target: UniProtKB P15056
Assay: B-Raf kinase activity biochemical assay (AlphaScreen, biotin-MEK1 phosphorylation)
Conditions: B-Raf
Known IC50 of a selection of molecules

Some molecules with known IC50 results, for comparison:
INSERT INTO assay_data (molecule, measured_value) VALUES
  ('Cn1cc(Nc2ncnc3[nH]cc(C(=O)c4c(F)ccc(NS(=O)(=O)c5ccc(C(F)(F)F)cc5)c4F)c23)cn1 [P-1062]', '< 0.1 µM'),
  ('CCCS(=O)(=O)Nc1ccc(F)c(C(=O)c2c[nH]c3ncc(Cl)c(OC)c23)c1F [P-2006]', '< 0.1 µM'),
  ('O=C(c1c(F)ccc(NS(=O)(=O)c2ccc(C(F)(F)F)cc2)c1F)c1c[nH]c2ncnc(NCCO)c12 [P-1043]', '< 0.1 µM'),
  ('Cc1cc(C)cc(S(=O)(=O)Nc2ccc(F)c(C(=O)c3c[nH]c4ncnc(C)c34)c2F)c1 [P-1027]', '> 0.1 µM'),
  ('CNc1ncnc2[nH]cc(C(=O)c3c(F)ccc(NS(=O)(=O)c4ccc(C(F)(F)F)cc4)c3F)c12 [P-1026]', '> 0.1 µM');

Please state recorded IC50 (tested on UniProtKB P15056) of O=C(c1c(F)ccc(NS(=O)(=O)c2ccc(C(F)(F)F)cc2)c1F)c1c[nH]c2ncnc(NC3CCOCC3)c12 [P-1013]
< 0.1 µM

###

Molecular target: CYP3A4 (Homo sapiens (Human))
Sequence (P08684 whole entry): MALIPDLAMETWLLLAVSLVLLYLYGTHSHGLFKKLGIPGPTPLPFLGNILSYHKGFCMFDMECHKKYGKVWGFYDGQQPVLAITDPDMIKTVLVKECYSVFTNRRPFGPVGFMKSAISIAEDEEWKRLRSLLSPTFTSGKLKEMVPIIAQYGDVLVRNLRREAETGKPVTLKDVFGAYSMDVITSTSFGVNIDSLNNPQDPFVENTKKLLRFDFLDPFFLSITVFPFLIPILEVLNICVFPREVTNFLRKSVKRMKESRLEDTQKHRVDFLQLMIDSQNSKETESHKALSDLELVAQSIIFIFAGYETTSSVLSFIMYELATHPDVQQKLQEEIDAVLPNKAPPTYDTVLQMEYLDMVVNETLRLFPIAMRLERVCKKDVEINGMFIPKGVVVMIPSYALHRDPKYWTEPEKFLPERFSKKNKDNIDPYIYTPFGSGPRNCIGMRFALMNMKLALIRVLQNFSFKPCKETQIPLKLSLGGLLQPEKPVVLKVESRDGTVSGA
Experiment: CYP enzyme inhibition, fluorescent substrate BFC
Details: human, CYP3A4 enzyme (BD Biosciences), probe BFC
measurement label: IC50 at 30 min

Fill in the blank: the reported IC50 at 30 min of "CCCS(=O)(=O)Nc1ccc(F)c(C(=O)c2c[nH]c3nccc(NC4CCCC4)c23)c1F" is ____.
> 10 µM
